assay: Plasma clearance in rat at 5 umol/kg, iv; type: ADME, organism-based
Endpoint label: clearance (mL/min/kg)

1) CN(C)c1ccc(-c2c(N)ncnc2C#Cc2ccc(N3CCOCC3)nc2)cc1	16.7

----------
target: Adenosine kinase (Homo sapiens, UniProt P55263); assay: Inhibition of adenosine kinase in intact cells assessed as adenosine phosphorylation; type: functional, cell-based
Sequence (P55263 whole entry): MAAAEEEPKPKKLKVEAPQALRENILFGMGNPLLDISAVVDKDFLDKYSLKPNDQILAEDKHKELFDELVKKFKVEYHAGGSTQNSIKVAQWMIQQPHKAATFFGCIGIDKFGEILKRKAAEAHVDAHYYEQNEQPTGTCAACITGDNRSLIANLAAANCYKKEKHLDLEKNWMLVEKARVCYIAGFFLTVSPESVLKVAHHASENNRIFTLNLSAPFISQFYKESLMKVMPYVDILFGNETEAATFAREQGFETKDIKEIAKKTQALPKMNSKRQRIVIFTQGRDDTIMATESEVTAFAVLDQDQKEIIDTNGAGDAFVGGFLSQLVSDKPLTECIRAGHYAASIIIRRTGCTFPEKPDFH
pIC50: −log10 of the molar value.
Endpoint label: pIC50

1. Nc1ncnc(C#Cc2ccc(N3CCOCC3)nc2)c1-c1cc2ccccc2s1	7.00
2. CN(C)c1ccc(C#Cc2ncnc(N)c2-c2ccc(N(C)C)cc2)cc1	6.62
3. CN(C)c1cc(C#Cc2ncnc(N)c2-c2ccc3c(c2)OCO3)cnc1N1CCOCC1	6.79
